System: OPM2 MM cell line
Experiment: MTT colorimetric survival assay
Assay type: cell-based, human
Conditions: read-out: EC50 (viability), OPM2, 0-4 μM, 48 hrs
Measured property: EC50

q: Field request: EC50 | item: CS(=O)(=O)N1CCC(NC(=O)c2[nH]ncc2NC(=O)c2c(Cl)cccc2Cl)CC1
a: < 1000 nM

====

System: Delta 47 MM cell line
Test: MTT colorimetric survival assay
Assay type: cell-based, human
Conditions: read-out: EC50 (viability), Delta 47, 0-4 μM, 48 hrs
Measured property: EC50

q: Would you kindly share the measured EC50 for CS(=O)(=O)N1CCC(NC(=O)c2[nH]ncc2NC(=O)c2c(Cl)cccc2Cl)CC1 ?
a: < 1000 nM

====

System: XG-1 MM cell line
Test: MTT colorimetric survival assay
Type: cell-based, human
Conditions: read-out: EC50 (viability), XG-1, 0-4 μM, 48 hrs
Measured property: EC50

q: Which EC50 value belongs to CS(=O)(=O)N1CCC(NC(=O)c2[nH]ncc2NC(=O)c2c(Cl)cccc2Cl)CC1 ?
a: > 4 µM
